biological target: HLA-A*24:03; experiment: IEDB peptide-MHC binding, purified MHC/direct/fluorescence; filed as Kd, often an IC50 or EC50 that approximates it; bounds were set here for any values at or beyond the usual limits of such assays; conditions: source organism: Orthohantavirus andesense
Recorded endpoint: Kd

[ask] Could you share which Kd value was measured for "YLIPSVTSL" ?
[reply] ≥ 20 µM

* * *

target: HLA-A*11:01; assay: IEDB peptide-MHC binding, purified MHC/competitive/radioactivity; filed as Kd, often an IC50 or EC50 that approximates it; bounds were set here for any values at or beyond the usual limits of such assays; details: source organism: Mammarenavirus guanaritoense
pKd: −log10 of the molar value.
Recorded endpoint: pKd

[ask] Could you share which pKd value was measured for "TMEIEDQEYH" ?
[reply] ≤ 4.16

* * *

biological target: HLA-C*08:02; test: IEDB peptide-MHC binding, purified MHC/direct/fluorescence; filed as Kd, often an IC50 or EC50 that approximates it; bounds were set here for any values at or beyond the usual limits of such assays; settings: source organism: dengue virus type 1
Recorded endpoint: Kd (nM)
Form entry: value (nM) — number only.

[ask] Could you share which Kd value was measured for "FTMRLLSPV" ?
[reply] 316

* * *

target: HLA-B*08:03; test: IEDB peptide-MHC binding, purified MHC/direct/fluorescence; filed as Kd, often an IC50 or EC50 that approximates it; bounds were set here for any values at or beyond the usual limits of such assays; settings: source organism: Giardia lamblia ATCC 50803
Recorded endpoint: pKd
Answer as the number alone; pKd is minus log10 of concentration in mol/L.

[ask] Could you share which pKd value was measured for "QLKQRDALF" ?
[reply] 6.77

* * *

target: HLA-A*30:01; assay: IEDB peptide-MHC binding, purified MHC/direct/fluorescence; filed as Kd, often an IC50 or EC50 that approximates it; bounds were set here for any values at or beyond the usual limits of such assays; details: source organism: Giardia lamblia ATCC 50803
Recorded endpoint: Kd (µM)
Form entry: value (µM) — number only.

[ask] Could you share which Kd value was measured for "IPRQWHPFA" ?
[reply] 4.66

* * *

biological target: HLA-B*40:02; experiment: IEDB peptide-MHC binding, cellular MHC/competitive/fluorescence; bounds were set here for any values at or beyond the usual limits of such assays; conditions: source organism: Homo sapiens
Recorded endpoint: IC50 (nM)
Form entry: value (nM) — number only.

[ask] Could you share which IC50 value was measured for "SSYGNIRAV" ?
[reply] 1800

* * *

target: HLA-A*26:01; assay: IEDB peptide-MHC binding, purified MHC/competitive/fluorescence; filed as Kd, often an IC50 or EC50 that approximates it; bounds were set here for any values at or beyond the usual limits of such assays; settings: source organism: Rickettsia sibirica 246
pKd: −log10 of the molar value.
Recorded endpoint: pKd

[ask] Lab note: need pKd with HLA-A*26:01 for entry "AMYDPQTYY" , please look it up.
[reply] ≤ 4.70

* * *

molecular target: HLA-B*08:01; assay: IEDB peptide-MHC binding, purified MHC/competitive/fluorescence; filed as Kd, often an IC50 or EC50 that approximates it; bounds were set here for any values at or beyond the usual limits of such assays; details: source organism: Escherichia coli
Recorded endpoint: Kd (nM)
Form entry: value (nM) — number only.

[ask] Could you share which Kd value was measured for "FQRAIMNAM" ?
[reply] 154

* * *

target: HLA-C*03:03; assay: IEDB peptide-MHC binding, purified MHC/direct/fluorescence; filed as Kd, often an IC50 or EC50 that approximates it; bounds were set here for any values at or beyond the usual limits of such assays; conditions: source organism: Rattus norvegicus
Recorded endpoint: pKd
Answer as the number alone; pKd is minus log10 of concentration in mol/L.

[ask] Could you share which pKd value was measured for "FLRKNQRAL" ?
[reply] 7.28

* * *

molecular target: HLA-B*15:01; assay: IEDB peptide-MHC binding, purified MHC/direct/fluorescence; filed as Kd, often an IC50 or EC50 that approximates it; bounds were set here for any values at or beyond the usual limits of such assays; conditions: source organism: West Nile virus
pKd: −log10 of the molar value.
Recorded endpoint: pKd

[ask] Lab note: need pKd with HLA-B*15:01 for entry "AHYEEDVNL" , please look it up.
[reply] ≤ 4.70

* * *

target: HLA-A*30:02; assay: IEDB peptide-MHC binding, purified MHC/competitive/radioactivity; filed as Kd, often an IC50 or EC50 that approximates it; bounds were set here for any values at or beyond the usual limits of such assays; details: source organism: Mammarenavirus machupoense
Recorded endpoint: Kd (nM)
Form entry: value (nM) — number only.

[ask] Lab note: need Kd with HLA-A*30:02 for entry "HCALLDCIMY" , please look it up.
[reply] 1420

* * *

target: HLA-B*51:01; assay: IEDB peptide-MHC binding, purified MHC/competitive/radioactivity; filed as Kd, often an IC50 or EC50 that approximates it; bounds were set here for any values at or beyond the usual limits of such assays; settings: source organism: Dengue virus 2 Peru/IQT2913/1996
Recorded endpoint: Kd (µM)
Form entry: value (µM) — number only.

[ask] Could you share which Kd value was measured for "TPVESWEEI" ?
[reply] 10.5

* * *

Kd overview
biological target: HLA-A*29:02; assay: IEDB peptide-MHC binding, purified MHC/competitive/radioactivity; filed as Kd, often an IC50 or EC50 that approximates it; bounds were set here for any values at or beyond the usual limits of such assays; conditions: source organism: Mammarenavirus brazilense
Form entry: value (µM) — number only.

Residues | Kd [µM]
LFQLIFFLTL | 0.673
YQPDTGNYIL | 5.52

Now turn to the next sequence.
[ask] Could you share which Kd value was measured for "EMFKTKGRY" ?
[reply] 11.5

* * *

target: HLA-A*26:01; assay: IEDB peptide-MHC binding, purified MHC/competitive/fluorescence; filed as Kd, often an IC50 or EC50 that approximates it; bounds were set here for any values at or beyond the usual limits of such assays; settings: source organism: Staphylococcus aureus subsp. aureus N315
Recorded endpoint: Kd

[ask] Could you share which Kd value was measured for "VILNYIPVL" ?
[reply] ≥ 20 µM

* * *

biological target: HLA-A*02:11; test: IEDB peptide-MHC binding, purified MHC/direct/fluorescence; filed as Kd, often an IC50 or EC50 that approximates it; bounds were set here for any values at or beyond the usual limits of such assays; settings: source organism: Mycobacterium tuberculosis str. Haarlem
pKd: −log10 of the molar value.
Recorded endpoint: pKd

Residues | Result
LPVEYLQVP | ≤ 4.70

[ask] Could you share which pKd value was measured for "APAKKAAAK" ?
[reply] ≤ 4.70

* * *

target: HLA-B*48:01; assay: IEDB peptide-MHC binding, purified MHC/direct/fluorescence; filed as Kd, often an IC50 or EC50 that approximates it; bounds were set here for any values at or beyond the usual limits of such assays; settings: source organism: Lassa virus Josiah
Recorded endpoint: Kd

[ask] Could you share which Kd value was measured for "KQAKAPESK" ?
[reply] ≥ 20 µM

* * *

target: HLA-B*08:01; assay: IEDB peptide-MHC binding, purified MHC/competitive/radioactivity; filed as Kd, often an IC50 or EC50 that approximates it; bounds were set here for any values at or beyond the usual limits of such assays; settings: source organism: Vaccinia virus WR
hey, just use YES if measured Kd is less than 1000 nM, otherwise NO

[ask] Hello, is Kd of the following sequence strictly smaller than 1000 nM? "SKRMRVDII"
[reply] NO

[ask] Hello, is Kd of the following sequence strictly smaller than 1000 nM? "TLKQRLTNL"
[reply] YES

* * *

target: HLA-B*58:01; assay: IEDB peptide-MHC binding, purified MHC/direct/fluorescence; filed as Kd, often an IC50 or EC50 that approximates it; bounds were set here for any values at or beyond the usual limits of such assays; conditions: source organism: Vibrio parahaemolyticus
Recorded endpoint: Kd (nM)
Form entry: value (nM) — number only.

[ask] Lab note: need Kd with HLA-B*58:01 for entry "YSLGQGPVW" , please look it up.
[reply] 2.6

* * *

molecular target: HLA-B*44:02; assay: IEDB peptide-MHC binding, purified MHC/direct/fluorescence; filed as Kd, often an IC50 or EC50 that approximates it; bounds were set here for any values at or beyond the usual limits of such assays; conditions: source organism: Campylobacter jejuni RM1221
Recorded endpoint: Kd

[ask] Could you share which Kd value was measured for "KNDAVYIGY" ?
[reply] ≥ 20 µM

* * *

molecular target: HLA-B*27:03; experiment: IEDB peptide-MHC binding, purified MHC/competitive/fluorescence; filed as Kd, often an IC50 or EC50 that approximates it; bounds were set here for any values at or beyond the usual limits of such assays; conditions: source organism: Escherichia coli B171
pKd: −log10 of the molar value.
Recorded endpoint: pKd

[ask] Could you share which pKd value was measured for "KAIIDTAQF" ?
[reply] ≤ 4.70

* * *

biological target: HLA-A*24:02; assay: IEDB peptide-MHC binding, purified MHC/direct/fluorescence; filed as Kd, often an IC50 or EC50 that approximates it; bounds were set here for any values at or beyond the usual limits of such assays; details: source organism: dengue virus type 2
Recorded endpoint: pKd
Answer as the number alone; pKd is minus log10 of concentration in mol/L.

[ask] Could you share which pKd value was measured for "WYGMEIRPL" ?
[reply] 6.34
